Assay Comment: Rat 28-day GLP repeat dose PO study (toxicokinetics)
Assay type: in vivo
Settings: female, rat, in vivo, po, 50 mg/kg, Day 1, F, 50 mg/kg PO
Counter-ions that a name gives are not always drawn.
Measured Metric: AUC
Please answer using the number first and the unit second.

Asked: Tell me the measured AUC of CC1(C)SC(Nc2ccccc2O)=N[C@@H]1C(=O)O [Compound 1, mono-hydrochloride] , please.
Given back: 298 µg·h/mL

###

Assay Comment: Dog single dose study, IV 10 mg/kg and oral 10 and 100 mg/kg
Type: in vivo
Settings: beagle, dog, plasma, po; both 10 and 100 mg/kg doses
Counter-ions that a name gives are not always drawn.
Measured Metric: bioavailability (%)
Report as a plain number; the unit % is understood.

Asked: Tell me the measured bioavailability of CC1(C)SC(Nc2ccccc2O)=N[C@@H]1C(=O)O [Compound 1, mono-hydrochloride] , please.
Given back: 75
